Assay: Metabolic stability in mouse liver microsomes assessed as parent compound remaining at 1 uM after 30 mins by LC-ESI-TOF/MS method
Type: ADME, microsome
Conditions: read-out: Stability
quantity measured: remaining at 0.5 h, 1 µM (%)

Tell me measured remaining at 0.5 h, 1 µM for Cc1cc(Nc2cc(N)ncn2)c(=O)n2c1C(=O)NC21CCC(F)(F)CC1 please.
99

Tell me measured remaining at 0.5 h, 1 µM for Nc1cc(Nc2cc(Cl)c3n(c2=O)C2(CCCCC2)NC3=O)ncn1 please.
73

Tell me measured remaining at 0.5 h, 1 µM for CC1(C)NC(=O)c2c(Cl)cc(Nc3cc(N)ncn3)c(=O)n21 please.
95

Tell me measured remaining at 0.5 h, 1 µM for Nc1cc(Nc2cc(Cl)c3n(c2=O)C2(CCCC2)NC3=O)ncn1 please.
71

Tell me measured remaining at 0.5 h, 1 µM for Cc1cc(Nc2cc(N)ncn2)c(=O)n2c1C(=O)NC21CCCCC1 [TOMIVOSERTIB] please.
90

* * *

Experiment: in vitro
Settings: human, Caco-2
quantity measured: Papp A→B at 2 h, 5 µM (×10⁻⁶ cm/s)

// solved cases for Papp A→B at 2 h, 5 µM follow
Tell me measured Papp A→B at 2 h, 5 µM for CC1(C)NC(=O)c2c(Cl)cc(Nc3cc(N)ncn3)c(=O)n21 please.
0.9

Tell me measured Papp A→B at 2 h, 5 µM for Nc1cc(Nc2cc(Cl)c3n(c2=O)C2(CCCC2)NC3=O)ncn1 please.
1.2

I: Cc1cc(Nc2cc(N)ncn2)c(=O)n2c1C(=O)NC21CCCCC1
II: Nc1cc(Nc2cc(Cl)c3n(c2=O)C2(CCCCC2)NC3=O)ncn1
Determine, for I and II , which has the greater value of Papp A→B at 2 h, 5 µM. Which one? Tell me its label.
I
(I: 7.1 ×10⁻⁶ cm/s, II: 4.2 ×10⁻⁶ cm/s)

* * *

Test: physchem
Conditions: octanol/water
quantity measured: logP

Tell me measured logP for CC1(C)NC(=O)c2c(Cl)cc(Nc3cc(N)ncn3)c(=O)n21 please.
1.8

Tell me measured logP for Nc1cc(Nc2cc(Cl)c3n(c2=O)C2(CCCCC2)NC3=O)ncn1 please.
3.2

Tell me measured logP for Cc1cc(Nc2cc(N)ncn2)c(=O)n2c1C(=O)NC21CCCCC1 please.
2.7

Tell me measured logP for Nc1cc(Nc2cc(Cl)c3n(c2=O)C2(CCCC2)NC3=O)ncn1 please.
2.4

* * *

Biological target: Receptor-type tyrosine-protein kinase FLT3 (Homo sapiens) (UniProt P36888)
Sequence (P36888 whole entry): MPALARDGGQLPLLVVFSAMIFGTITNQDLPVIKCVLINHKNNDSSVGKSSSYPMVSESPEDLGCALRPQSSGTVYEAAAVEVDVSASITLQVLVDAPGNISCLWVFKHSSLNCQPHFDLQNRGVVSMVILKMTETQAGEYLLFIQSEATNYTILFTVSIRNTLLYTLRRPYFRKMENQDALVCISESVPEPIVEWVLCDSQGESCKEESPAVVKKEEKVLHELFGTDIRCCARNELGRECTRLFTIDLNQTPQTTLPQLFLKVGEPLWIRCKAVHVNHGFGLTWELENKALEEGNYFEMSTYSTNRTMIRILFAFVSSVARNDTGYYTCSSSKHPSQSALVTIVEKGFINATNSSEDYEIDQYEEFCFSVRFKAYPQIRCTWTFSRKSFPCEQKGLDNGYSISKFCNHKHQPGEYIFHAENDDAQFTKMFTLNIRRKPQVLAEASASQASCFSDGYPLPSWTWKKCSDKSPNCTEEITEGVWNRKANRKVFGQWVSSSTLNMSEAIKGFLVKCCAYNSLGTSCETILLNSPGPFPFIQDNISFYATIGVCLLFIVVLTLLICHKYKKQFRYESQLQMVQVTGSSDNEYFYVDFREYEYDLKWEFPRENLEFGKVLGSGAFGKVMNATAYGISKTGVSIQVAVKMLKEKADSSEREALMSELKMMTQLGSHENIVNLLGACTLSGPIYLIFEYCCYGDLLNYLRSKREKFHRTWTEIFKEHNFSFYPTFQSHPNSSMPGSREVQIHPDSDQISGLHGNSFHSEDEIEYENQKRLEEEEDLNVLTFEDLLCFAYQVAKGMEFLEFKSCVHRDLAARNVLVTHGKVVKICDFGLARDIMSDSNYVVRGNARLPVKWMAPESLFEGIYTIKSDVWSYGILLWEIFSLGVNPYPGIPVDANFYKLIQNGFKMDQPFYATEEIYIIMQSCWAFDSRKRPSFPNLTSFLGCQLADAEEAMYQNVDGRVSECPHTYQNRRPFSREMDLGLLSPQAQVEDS
Assay: Inhibition of FLT3 (unknown origin) at 1 uM relative to control
quantity measured: inhibition (%)

I: CC1(c2cccc(Cl)c2)NC(=O)c2c(Cl)cc(Nc3cc(NC(=O)C4CC4)ncn3)c(=O)n21 (centres undefined)
II: CC1(C)NC(=O)c2ccc(Nc3cc(NC(=O)C4CC4)ncn3)c(=O)n21
III: Nc1cc(Nc2cc(Cl)c3n(c2=O)C2(CCCC2)NC3=O)ncn1
IV: N[C@H]1C[C@H](Oc2ccc3ncc(-c4ccc5cnccc5c4)n3n2)C1
// ranking: key=inhibition, reverse=True Output spec: a listing of the labels in the requested order.
III, IV, I, II
(III: 55%, IV: 17%, I: 10%, II: 4%)

* * *

Test: Protein binding in human plasma
Type: ADME, cell-free
Details: read-out: PPB
quantity measured: fraction unbound
Respond using a number only.

Tell me measured fraction unbound for Cc1cc(Nc2cc(N)ncn2)c(=O)n2c1C(=O)NC21CCCCC1 [TOMIVOSERTIB] please.
0.5
